Source: paper PMC11510191

# Test system: E. faecalis (G+)
# assay_text: MIC broth microdilution
# Assay type: cell-based
# condition_info: Enterococcus faecalis, 24 h
observed_property: MIC

Below, 5 molecules whose answers are already recorded.
molecule	observed_property	result
Cc1ccc(S(=O)(=O)n2cc(CCC(=O)Oc3c4c(c5ccccc5c3OC(=O)CCc3cn(S(=O)(=O)c5ccc(C)cc5)nn3)OC(C)(C)C=C4)nn2)cc1 [Compound 2f]	MIC	> 200 µg/mL
CNC(C)C1CCC(N)C(OC2C(N)CC(N)C(OC3OCC(C)(O)C(NC)C3O)C2O)O1 (stereo not drawn) [Gentamicin, reference compound]	MIC	0.78 µg/mL
Cc1ccc(S(=O)(=O)n2cc(CCCC(=O)Oc3c4c(c5ccccc5c3OC(=O)CCCc3cn(S(=O)(=O)c5ccc(C)cc5)nn3)OC(C)(C)C=C4)nn2)cc1 [Compound 3f]	MIC	> 200 µg/mL
CC(=O)O[C@@H]1[C@@H](OC(C)=O)[C@H](OC(C)=O)CO[C@H]1n1cc(CCCC(=O)Oc2c3c(c4ccccc4c2OC(=O)CCCc2cn([C@@H]4OC[C@@H](OC(C)=O)[C@H](OC(C)=O)[C@H]4OC(C)=O)nn2)OC(C)(C)C=C3)nn1 [Compound 3e]	MIC	> 200 µg/mL
C#CCCC(=O)Oc1c2c(c3ccccc3c1OC(=O)CCC#C)OC(C)(C)C=C2 [Compound 1a]	MIC	> 200 µg/mL

Would you kindly look at the next entry?
Let me know recorded MIC for CC1(C)C=Cc2c(OC(=O)CCCc3cn(Cc4ccc([N+](=O)[O-])cc4)nn3)c(OC(=O)CCCc3cn(Cc4ccc([N+](=O)[O-])cc4)nn3)c3ccccc3c2O1 [Compound 3h] , thanks. > 200 µg/mL

* * *

Property: CC50 at 24 h; scope: individual molecules
# assay_text: Cytotoxicity on L929 fibroblasts (resazurin)
# condition_info: mouse

Let me know recorded CC50 at 24 h for CC1(C)C=Cc2c(OC(=O)CCCc3cn(-c4cccc(Cl)c4)nn3)c(OC(=O)CCCc3cn(-c4cccc(Cl)c4)nn3)c3ccccc3c2O1 , thanks. > 384 µM

Let me know recorded CC50 at 24 h for CC1(C)C=Cc2c(OC(=O)CCCc3cn(-c4ccccc4)nn3)c(OC(=O)CCCc3cn(-c4ccccc4)nn3)c3ccccc3c2O1 , thanks. > 256 µM

Let me know recorded CC50 at 24 h for CC1(C)C=Cc2c(OC(=O)CCc3cn(-c4ccc(Cl)cc4)nn3)c(OC(=O)CCc3cn(-c4ccc(Cl)cc4)nn3)c3ccccc3c2O1 , thanks. > 256 µM

* * *

# Tested on: T. cruzi epimastigotes
# assay_text: Trypanocidal activity on T. cruzi epimastigotes (CL-B5 lacZ, CPRG)
# Format: cell-based, Trypanosoma cruzi clone CL-B5
# condition_info: Trypanosoma cruzi, 72 h, epimastigotes, 72 h; read-out: Trypanocidal Activity IC50 T. cruzi
observed_property: IC50

Below, 2 compounds whose answers are already recorded.
smiles_record	observed_property	result
CC1(C)C=Cc2c(OC(=O)CCCc3cn(Cc4ccc([N+](=O)[O-])cc4)nn3)c(OC(=O)CCCc3cn(Cc4ccc([N+](=O)[O-])cc4)nn3)c3ccccc3c2O1	IC50	> 256 µM
CC1(C)C=Cc2c(OC(=O)CCCc3cn(-c4ccc(Cl)cc4)nn3)c(OC(=O)CCCc3cn(-c4ccc(Cl)cc4)nn3)c3ccccc3c2O1	IC50	> 256 µM

Would you kindly look at the next entry?
For T. cruzi epimastigotes, give the measured IC50 of the entry CC(=O)O[C@@H]1[C@@H](OC(C)=O)[C@H](OC(C)=O)CO[C@H]1n1cc(CCCC(=O)Oc2c3c(c4ccccc4c2OC(=O)CCCc2cn([C@@H]4OC[C@@H](OC(C)=O)[C@H](OC(C)=O)[C@H]4OC(C)=O)nn2)OC(C)(C)C=C3)nn1 > 256 µM
